Tested on: Staphylococcus aureus
Assay procedure: Antibacterial activity against aminoglycosides/tetracycline-resistant Staphylococcus aureus NRS-1 measured after 16 hrs
Format: functional
Applied conditions: NRS-1, 16 h
Parameter measured: MIC

Molecule	MIC
CC(C)CNc1nccc(NCCCNC2CCCc3c2[nH]c2ccc(C(F)(F)F)cc32)n1 (stereo not drawn)	1.56 to 3.13 µg/mL
NC[C@H]1O[C@H](O[C@H]2[C@H](O)[C@@H](O[C@H]3O[C@H](CO)[C@@H](O)[C@H](N)[C@H]3O)[C@H](N)C[C@@H]2N)[C@H](O)[C@@H](O)[C@@H]1O	50 to 75 µg/mL
CC(C)CNc1nccc(NCCCNC2CCCc3c2[nH]c2ccc(Br)cc32)n1 (stereo not drawn)	0.39 to 0.78 µg/mL

Prompt: Determine its reported MIC: Cc1ccc2[nH]c3c(c2c1)CCCC3NCCCCc1ccccc1 (stereo not drawn)
Response: 2.9 to 4.2 µg/mL

Prompt: Determine its reported MIC: CN(C)[C@@H]1C(O)=C(C(N)=O)C(=O)[C@@]2(O)C(O)=C3C(=O)c4c(O)cccc4[C@@](C)(O)[C@H]3C[C@@H]12
Response: > 12.5 µg/mL

Prompt: Determine its reported MIC: CC(C)CNc1nccc(NCCCNC2CCCc3c2[nH]c2ccc(OC(F)(F)F)cc32)n1 (stereo not drawn)
Response: 1.56 to 3.13 µg/mL

Prompt: Determine its reported MIC: CC(C)CNc1nccc(NCCCNC2CCCc3c2[nH]c2c(Br)cccc32)n1 (stereo not drawn)
Response: 3.13 to 6.25 µg/mL

Prompt: Determine its reported MIC: CC(C)CNc1nccc(NCCCNC2CCCc3c2[nH]c2ccc(Cl)cc32)n1 (stereo not drawn)
Response: 1.56 to 3.13 µg/mL

* * *

Assay procedure: AUC (0 to infinity) in Sprague-Dawley rat at 10 mg/kg, po administered as single dose via gavage
Assay type: ADME, organism-based
Set-up: dose 10 mg/kg, route oral, time infinity
Applied conditions: in vivo
Parameter measured: AUC(0-inf) (ng·h/mL)
// note: answer is a bare numeric in ng·h/mL

Prompt: Determine its reported AUC(0-inf): CC(C)CNc1nccc(NCCCNC2CCCc3c2[nH]c2ccc(Br)cc32)n1 (stereo unspecified)
Response: 1560

* * *

Assay procedure: Clearance in Sprague-Dawley rat at 10 mg/kg, po administered as single dose via gavage
Format: ADME, organism-based
Applied conditions: in vivo
Parameter measured: CL/F (mL/min/kg)
// note: answer is a bare numeric in mL/min/kg

Prompt: Determine its reported CL/F: CC(C)CNc1nccc(NCCCNC2CCCc3c2[nH]c2ccc(Br)cc32)n1 (stereo unspecified)
Response: 110

* * *

Listed here are molecules together with their documented MIC.
Tested on: Escherichia coli
Assay procedure: Antibacterial activity against Escherichia coli AB1157 measured after 16 hrs
Format: functional
Applied conditions: AB1157, 16 h

Use these answered entries as a reference point.
Molecule	MIC
NC[C@H]1O[C@H](O[C@H]2[C@H](O)[C@@H](O[C@H]3O[C@H](CO)[C@@H](O)[C@H](N)[C@H]3O)[C@H](N)C[C@@H]2N)[C@H](O)[C@@H](O)[C@@H]1O	> 50 µg/mL
COc1ccc2[nH]c3c(c2c1)CCCC3NCCCNc1ccnc(NCC(C)C)n1 (stereo not given)	> 50 µg/mL
CC(C)CNc1nccc(NCCNC2CCCc3c2[nH]c2ccc(OC(F)(F)F)cc32)n1 (stereo not given)	3.13 to 6.25 µg/mL

Prompt: Determine its reported MIC: CC(C)CNc1nccc(NCCCCNC2CCCc3c2[nH]c2ccc(OC(F)(F)F)cc32)n1 (stereo not given)
Response: 3.13 to 6.25 µg/mL

* * *

Assay procedure: Tmax in Sprague-Dawley rat at 10 mg/kg, po administered as single dose via gavage
Assay type: ADME, organism-based
Applied conditions: in vivo
Parameter measured: Tmax

Prompt: Determine its reported Tmax: CC(C)CNc1nccc(NCCCNC2CCCc3c2[nH]c2ccc(Br)cc32)n1 (stereo unspecified)
Response: 3.6 h

* * *

Listed here are compounds together with their documented MIC.
Test system: Escherichia coli
Assay procedure: Antibacterial activity against Escherichia coli AB1157 measured after 16 hrs
Format: functional
Applied conditions: AB1157, 16 h

Use these answered entries as a reference point.
Compound	Assayed system	MIC
CC(C)CNc1nccc(NCCCCNC2CCCc3c2[nH]c2ccc(Br)cc32)n1 (configuration not stated)	Escherichia coli	1.56 to 3.13 µg/mL
CC(C)CNc1nccc(NCCCNC2CCCc3c2[nH]c2ccc(C(=O)O)cc32)n1 (configuration not stated)	Escherichia coli	> 50 µg/mL
CC(C)CNc1nccc(NCCCNC2CCCc3c2[nH]c2ccc(C(F)(F)F)cc32)n1 (configuration not stated)	Escherichia coli	1.56 to 3.13 µg/mL
COc1cccc2c3c([nH]c12)C(NCCCNc1ccnc(NCC(C)C)n1)CCC3 (configuration not stated)	Escherichia coli	12.5 to 25 µg/mL

Prompt: Determine its reported MIC: CN[C@H](CC(C)C)C(=O)N[C@H]1C(=O)N[C@@H](CC(N)=O)C(=O)N[C@H]2C(=O)N[C@H]3C(=O)N[C@H](C(=O)N[C@H](C(=O)O)c4cc(O)cc(O)c4-c4cc3ccc4O)[C@H](O)c3ccc(c(Cl)c3)Oc3cc2cc(c3O[C@@H]2O[C@H](CO)[C@@H](O)[C@H](O)[C@H]2O[C@H]2C[C@](C)(N)[C@H](O)[C@H](C)O2)Oc2ccc(cc2Cl)[C@H]1O [VANCOMYCIN]
Response: 6.25 to 12.5 µg/mL

Prompt: Determine its reported MIC: CC(C)CNc1nccc(NCCCNC2CCCc3c2[nH]c2ccc(Br)cc32)n1 (configuration not stated)
Response: 0.39 to 0.78 µg/mL

Prompt: Determine its reported MIC: CC(C)CNc1nccc(NCCCNC2CCCc3c2[nH]c2c(Br)cccc32)n1 (configuration not stated)
Response: 6.25 to 12.5 µg/mL

* * *

Assay procedure: Cmax in Sprague-Dawley rat at 10 mg/kg, po administered as single dose via gavage
Format: ADME, organism-based
Design: dose 10 mg/kg, route oral
Applied conditions: in vivo
Parameter measured: Cmax (ng/mL)
// note: answer is a bare numeric in ng/mL

Prompt: Determine its reported Cmax: CC(C)CNc1nccc(NCCCNC2CCCc3c2[nH]c2ccc(Br)cc32)n1 (stereo unspecified)
Response: 86.3

* * *

Assay procedure: Mean residence time in Sprague-Dawley rat at 10 mg/kg, po administered as single dose via gavage
Assay type: ADME, organism-based
Applied conditions: in vivo
Parameter measured: MRT (h)
// note: answer is a bare numeric in h

Prompt: Determine its reported MRT: CC(C)CNc1nccc(NCCCNC2CCCc3c2[nH]c2ccc(Br)cc32)n1 (stereo unspecified)
Response: 16.2

* * *

Assay procedure: Half life in Sprague-Dawley rat at 10 mg/kg, po administered as single dose via gavage
Type: ADME, organism-based
Applied conditions: in vivo
Parameter measured: half-life (h)
// note: answer is a bare numeric in h

Prompt: Determine its reported half-life: CC(C)CNc1nccc(NCCCNC2CCCc3c2[nH]c2ccc(Br)cc32)n1 (stereo unspecified)
Response: 10.8

* * *

Listed here are molecules together with their documented MIC.
Tested on: Escherichia coli
Assay procedure: Antibacterial activity against Escherichia coli AB1157 measured after 16 hrs
Type: functional
Applied conditions: AB1157, 16 h

Use these answered entries as a reference point.
> print(dat)
                                   molecule  recorded.measurement
1  CC(C)CNc1nccc(NCCCNC2CCCc3c2[nH]c2ccccc32)n1 (stereo unspecified)      12.5 to 25 µg/mL
2  COC(=O)c1ccc2[nH]c3c(c2c1)CCCC3NCCCNc1ccnc(NCC(C)C)n1 (stereo unspecified)            > 50 µg/mL
3  CC(C)CNc1nccc(NCCCNC2CCCc3c2[nH]c2ccc(Cl)cc32)n1 (stereo unspecified)    1.56 to 3.13 µg/mL

Prompt: Lab note: Escherichia coli assay, enter MIC for CC(C)CNc1nccc(NCCCNC2CCCc3c2[nH]c2ccc(OC(F)(F)F)cc32)n1 (stereo unspecified) here
Response: 1.56 to 3.13 µg/mL

Prompt: Lab note: Escherichia coli assay, enter MIC for CC(C)CNc1nccc(NCCCNC2CCCc3c2[nH]c2ccc(F)cc32)n1 (stereo unspecified) here
Response: 12.5 to 25 µg/mL

Prompt: Lab note: Escherichia coli assay, enter MIC for CC(C)CNc1nccc(NCCNC2CCCc3c2[nH]c2ccc(Br)cc32)n1 (stereo unspecified) here
Response: 1.56 to 3.13 µg/mL
